Assay: Inhibition of porcine succinate-cytochrome c reductase using succinate and cytochrome c as substrates by spectrophotometric based assay
Set-up: species or system Sus scrofa
Entries whose IC50 is below 1000 nM take YES; entries at or above 1000 nM take NO.

[
  {
    "COMPOUND STRUCTURE STRING": "O=S(=O)(Nc1ccc(Oc2ccc3ccccc3c2)c(Cl)c1)c1ccccc1",
    "CLASS NAME": "NO"
  },
  {
    "COMPOUND STRUCTURE STRING": "O=S(=O)(Nc1ccc(Oc2ccc(Cl)cc2Cl)c(Cl)c1)c1ccc(Cl)cc1Cl",
    "CLASS NAME": "NO"
  },
  {
    "COMPOUND STRUCTURE STRING": "O=S(=O)(Nc1cc(Cl)c(Oc2c(Cl)cc(Cl)cc2Cl)c(Cl)c1)c1ccc(Cl)cc1",
    "CLASS NAME": "YES"
  },
  {
    "COMPOUND STRUCTURE STRING": "O=S(=O)(Nc1cc(Cl)c(Oc2ccc(Cl)cc2Cl)c(Cl)c1)c1c(Cl)cc(Cl)cc1Cl",
    "CLASS NAME": "NO"
  },
  {
    "COMPOUND STRUCTURE STRING": "O=S(=O)(Nc1ccc(Oc2ccc(Cl)cc2Cl)cc1)c1ccccc1",
    "CLASS NAME": "NO"
  },
  {
    "COMPOUND STRUCTURE STRING": "O=S(=O)(Nc1cc(Cl)c(Oc2ccc(Cl)cc2Cl)c(Cl)c1)c1ccc(Cl)cc1Cl",
    "CLASS NAME": "NO"
  },
  {
    "COMPOUND STRUCTURE STRING": "O=S(=O)(Nc1ccc(Oc2ccc(Cl)cc2Cl)cc1)c1ccc(C(F)(F)F)cc1Cl",
    "CLASS NAME": "NO"
  },
  {
    "COMPOUND STRUCTURE STRING": "O=S(=O)(Nc1cc(Cl)c(Oc2c(Cl)cc(Cl)cc2Cl)c(Cl)c1)c1ccc(C(F)(F)F)cc1",
    "CLASS NAME": "YES"
  },
  {
    "COMPOUND STRUCTURE STRING": "O=S(=O)(Nc1ccc(Oc2ccc(Cl)cc2Cl)cc1)c1c(Cl)cc(Cl)cc1Cl",
    "CLASS NAME": "NO"
  },
  {
    "COMPOUND STRUCTURE STRING": "Cc1ccc(S(=O)(=O)Nc2cc(Cl)c(Oc3c(Cl)cc(Cl)cc3Cl)c(Cl)c2)cc1",
    "CLASS NAME": "NO"
  },
  {
    "COMPOUND STRUCTURE STRING": "O=S(=O)(Nc1cc(Cl)c(Oc2c(Cl)cc(Cl)cc2Cl)c(Cl)c1)c1ccccc1",
    "CLASS NAME": "YES"
  },
  {
    "COMPOUND STRUCTURE STRING": "Cc1ccccc1S(=O)(=O)Nc1cc(Cl)c(Oc2c(Cl)cc(Cl)cc2Cl)c(Cl)c1",
    "CLASS NAME": "YES"
  },
  {
    "COMPOUND STRUCTURE STRING": "O=S(=O)(Nc1ccc(Oc2ccc(Cl)cc2Cl)c(Cl)c1)c1c(Cl)cc(Cl)cc1Cl",
    "CLASS NAME": "NO"
  },
  {
    "COMPOUND STRUCTURE STRING": "O=S(=O)(Nc1ccc(Oc2ccc(Cl)cc2Cl)c(Cl)c1)c1ccccc1",
    "CLASS NAME": "NO"
  },
  {
    "COMPOUND STRUCTURE STRING": "O=S(=O)(Nc1cc(Cl)c(Oc2ccc(Cl)cc2Cl)c(Cl)c1)c1ccc(C(F)(F)F)cc1Cl",
    "CLASS NAME": "NO"
  },
  {
    "COMPOUND STRUCTURE STRING": "O=S(=O)(Nc1ccc(Oc2ccccc2)cc1)c1ccccc1",
    "CLASS NAME": "NO"
  },
  {
    "COMPOUND STRUCTURE STRING": "O=S(=O)(Nc1cc(Cl)c(Oc2ccc3ccccc3c2)c(Cl)c1)c1ccccc1",
    "CLASS NAME": "NO"
  },
  {
    "COMPOUND STRUCTURE STRING": "COc1ccc(S(=O)(=O)Nc2cc(Cl)c(Oc3c(Cl)cc(Cl)cc3Cl)c(Cl)c2)cc1",
    "CLASS NAME": "NO"
  },
  {
    "COMPOUND STRUCTURE STRING": "O=S(=O)(Nc1cc(Cl)c(Oc2ncc(C(F)(F)F)cc2Cl)c(Cl)c1)c1ccccc1",
    "CLASS NAME": "NO"
  }
]
